The values you see were collected from the kinase profiling compilation of Christmann-Franck et al. (2016).

Target: PAK6 (human)
Experiment: KINOMEscan competition binding
Conditions: compound 10.0 µM
Consider the following compounds and their measured kinase still bound, per cent of control readings.
# value in %; strip the unit string

Some solved cases for reference:
OCCCNc1cc(-c2ccnc(Nc3cccc(Cl)c3)n2)ccn1 = 100
C=CC(=O)Nc1cccc(Oc2nc(Nc3ccc(N4CCN(C)CC4)cc3OC)ncc2Cl)c1 = 100
CCOc1cc2ncc(C#N)c(Nc3ccc(OCc4ccccn4)c(Cl)c3)c2cc1NC(=O)/C=C/CN(C)C = 74
CCN1CCN(Cc2ccc(Nc3ncc4c(n3)N(C)c3ccccc3C(=O)N4C)cc2C(F)(F)F)CC1 = 79
CC[C@@H]1C(=O)N(C)c2cnc(Nc3ccc(C(=O)NC4CCN(C)CC4)cc3OC)nc2N1C1CCCC1 = 100
N#Cc1c(NC(=O)c2cccc3ccccc23)sc2c1CCCC2 = 88

INPUT: Report kinase still bound, per cent of control for Cc1ccc(NC(=O)c2cccc(C(C)(C)C#N)c2)cc1Nc1ccc2ncn(C)c(=O)c2c1 please.
OUTPUT: 84

INPUT: Then what about the compound C=CC(=O)Nc1cc(NC(=O)c2ccc(C)c(NC(=O)c3ccno3)c2)cc(C(F)(F)F)c1 ?
OUTPUT: 100

INPUT: Same question, COc1cc(N2CCN(C)CC2)ccc1Nc1nc(N)c(C(=O)c2c(Cl)cccc2Cl)s1 this time
OUTPUT: 55

###

Listed next: entries and their corresponding kinase still bound, per cent of control.
Target: RPS6KA4 KD1 (human)
Experiment: KINOMEscan competition binding
Conditions: compound 10.0 µM
Give just the number in %; leave the unit off.

The examples below pair each entry with its known result.
CCN1CCN(Cc2ccc(Nc3ncc4c(n3)N(C)c3ccccc3C(=O)N4C)cc2C(F)(F)F)CC1 = 100
OCCCNc1cc(-c2ccnc(Nc3cccc(Cl)c3)n2)ccn1 = 100
Cc1ccc(NC(=O)c2cccc(C(C)(C)C#N)c2)cc1Nc1ccc2ncn(C)c(=O)c2c1 = 100

INPUT: Entry under review: Cc1ccc2nc(NCCN)c3ncc(C)n3c2c1 . Reported kinase still bound, per cent of control?
OUTPUT: 100

INPUT: Also CCCS(=O)(=O)Nc1ccc(F)c(C(=O)c2c[nH]c3ncc(-c4ccc(Cl)cc4)cc23)c1F ?
OUTPUT: 90

###

Target: PI4KB (human)
Assay: KINOMEscan competition binding
Conditions: compound 10.0 µM
Below, each of the molecules is paired with its reported kinase still bound, per cent of control value.
Quick note: give the figure in %, leave out the unit.

Some solved entries appear below for comparison.
O=C(O)c1ccc(Nc2ncc3c(n2)-c2ccc(Cl)cc2C(c2c(F)cccc2F)=NC3)cc1 = 100
COc1cc(N2CCN(C)CC2)ccc1Nc1nc(N)c(C(=O)c2c(Cl)cccc2Cl)s1 = 100
O=C(NOC[C@H](O)CO)c1ccc(F)c(F)c1Nc1ccc(I)cc1F = 100
N#Cc1c(NC(=O)c2cccc3ccccc23)sc2c1CCCC2 = 100
Cc1cc([C@@H](C)Nc2ccccc2C(=O)O)c2nc(N3CCOCC3)cc(=O)n2c1 = 100

Lab note: next molecule to report on.
INPUT: Consider the molecule shown here: CCN1CCN(Cc2ccc(Nc3ncc4c(n3)N(C)c3ccccc3C(=O)N4C)cc2C(F)(F)F)CC1 What is its recorded kinase still bound, per cent of control?
OUTPUT: 100

###

kinase still bound, per cent of control values for the molecules below.
Target: CDK14 (human)
Assay: KINOMEscan competition binding
Details: compound 10.0 µM
API: value field is a number in %; no unit string.

INPUT: Fill in the blank: the reported kinase still bound, per cent of control of COc1cc(C(=O)NC2CCN(C)CC2)ccc1Nc1ncc2c(n1)N(C1CCCC1)C(C)CC(=O)N2C (centres undefined) is ____.
OUTPUT: 100

###

The following molecules are listed with their measured kinase still bound, per cent of control values.
Target: EPHA8 (human)
Experiment: KINOMEscan competition binding
Conditions: compound 10.0 µM
Number only, in %; omit the unit.

C=CC(=O)Nc1cccc(Nc2nc(N[C@H]3CC[C@H](N(C)C)CC3)nc3c2ncn3C(C)C)c1 = 100
O=C(NC1CC1)c1cccc(-c2ccc3c(NC(=O)C4CC4)n[nH]c3c2)c1 = 92
CCCS(=O)(=O)Nc1ccc(F)c(C(=O)c2c[nH]c3ncc(-c4ccc(Cl)cc4)cc23)c1F = 83
COc1cc(C(=O)NC2CCN(C)CC2)ccc1Nc1ncc2c(n1)N(C1CCCC1)C(C)CC(=O)N2C (centres undefined) = 100
O=C(O)c1ccc(Nc2ncc3c(n2)-c2ccc(Cl)cc2C(c2c(F)cccc2F)=NC3)cc1 = 99
CCOc1cc2ncc(C#N)c(Nc3ccc(OCc4ccccn4)c(Cl)c3)c2cc1NC(=O)/C=C/CN(C)C = 78

INPUT: Please look up its kinase still bound, per cent of control: COc1cc(C(=O)NC2CCN(C)CC2)ccc1Nc1ncc2c(n1)N(C1CCCC1)CCC(=O)N2C(C)C
OUTPUT: 100

INPUT: Same again, this time with Cc1ccc(C(=O)Nc2cccc(C(F)(F)F)c2)cc1Nc1cncc(C(N)=O)c1
OUTPUT: 0.35

INPUT: Also check CCC(=O)N1CCN(c2ccc(-n3c(=O)ccc4cnc5ccc(-c6cnc7ccccc7c6)cc5c43)cc2C(F)(F)F)CC1
OUTPUT: 71

###

Biological target: NEK1 (human)
Experiment: KINOMEscan competition binding
Settings: compound 10.0 µM
reported.property: kinase still bound, per cent of control (%)
Report only the number, with the unit % understood.

Answered examples (2):
C=CC(=O)Nc1cccc(Oc2nc(Nc3ccc(N4CCN(C)CC4)cc3OC)ncc2Cl)c1 = 100
Nc1ccc(-c2ccc3ncc4ccc(=O)n(-c5cccc(C(F)(F)F)c5)c4c3c2)cn1 = 87

Okay, now this compound:
INPUT: Which kinase still bound, per cent of control value is on record for COc1cc(C(=O)NC2CCN(C)CC2)ccc1Nc1ncc2c(n1)N(C1CCCC1)C(C)CC(=O)N2C (centres undefined) ?
OUTPUT: 100

###

Biological target: NEK6 (human) (UniProt Q9HC98)
Sequence (Q9HC98 whole entry, looked up): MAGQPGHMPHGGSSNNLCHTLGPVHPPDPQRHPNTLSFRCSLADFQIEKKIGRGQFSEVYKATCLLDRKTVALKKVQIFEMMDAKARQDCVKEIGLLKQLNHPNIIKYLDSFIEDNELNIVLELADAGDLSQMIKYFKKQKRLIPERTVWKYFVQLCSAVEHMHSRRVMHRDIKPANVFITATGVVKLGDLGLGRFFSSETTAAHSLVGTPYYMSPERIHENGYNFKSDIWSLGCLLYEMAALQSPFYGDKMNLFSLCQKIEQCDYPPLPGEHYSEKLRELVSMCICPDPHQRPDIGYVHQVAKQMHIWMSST
Assay: KINOMEscan competition binding
Settings: compound 10.0 µM
reported.property: kinase still bound, per cent of control (%)
// units = %; emit number, no label

COc1cc(C(=O)NC2CCN(C)CC2)ccc1Nc1ncc2c(n1)N(C1CCCC1)C(C)CC(=O)N2C (centres undefined) = 100
CN(C)C/C=C/C(=O)Nc1cccc(Nc2ncc3c(n2)N(C)c2ccccc2C(=O)N3C)c1 = 73
C=CC(=O)Nc1cccc(Nc2nc(N[C@H]3CC[C@H](N(C)C)CC3)nc3c2ncn3C(C)C)c1 = 90
COc1cc(N2CCN(C)CC2)ccc1Nc1nc(N)c(C(=O)c2c(Cl)cccc2Cl)s1 = 100
Cc1cc([C@@H](C)Nc2ccccc2C(=O)O)c2nc(N3CCOCC3)cc(=O)n2c1 = 100

INPUT: Which measured kinase still bound, per cent of control value corresponds to COc1cc(C(=O)NC2CCN(C)CC2)ccc1Nc1ncc2c(n1)N(C1CCCC1)CCC(=O)N2C(C)C ?
OUTPUT: 100

INPUT: Field entry: C[C@@H](Oc1cc(-n2cnc3ccc(CN4CCN(C)CC4)cc32)sc1C(N)=O)c1ccccc1C(F)(F)F
OUTPUT: 95

INPUT: Please do the same for N#Cc1c(NC(=O)c2cccc3ccccc23)sc2c1CCCC2 as well.
OUTPUT: 92

INPUT: Another: O=C(NOC[C@H](O)CO)c1ccc(F)c(F)c1Nc1ccc(I)cc1F
OUTPUT: 100

###

Biological target: PRKCD (human)
Test: KINOMEscan competition binding
Settings: compound 10.0 µM
Property: kinase still bound, per cent of control; scope: individual molecules
A number alone suffices; assume %.

As a guide, the following entries are already answered.
COc1cc(C(=O)NC2CCN(C)CC2)ccc1Nc1ncc2c(n1)N(C1CCCC1)CCC(=O)N2C(C)C = 0
Cc1ccc(NC(=O)c2cccc(C(C)(C)C#N)c2)cc1Nc1ccc2ncn(C)c(=O)c2c1 = 89
Cc1ccc(C(=O)Nc2cccc(C(F)(F)F)c2)cc1Nc1cncc(C(N)=O)c1 = 100

INPUT: Consider the molecule COc1cc(C(=O)NC2CCN(C)CC2)ccc1Nc1ncc2c(n1)N(C1CCCC1)C(C)CC(=O)N2C (stereo unspecified) and give its measured kinase still bound, per cent of control.
OUTPUT: 100

INPUT: Try this molecule too: Cc1cc([C@@H](C)Nc2ccccc2C(=O)O)c2nc(N3CCOCC3)cc(=O)n2c1
OUTPUT: 82

INPUT: Subsequent entry: O=C(O)c1ccc(Nc2ncc3c(n2)-c2ccc(Cl)cc2C(c2c(F)cccc2F)=NC3)cc1
OUTPUT: 100

###

Measured kinase still bound, per cent of control, listed per entry.
Biological target: WEE1 (human)
Experiment: KINOMEscan competition binding
Conditions: compound 10.0 µM
Respond numerically; units are % and should not be typed.

OCCCNc1cc(-c2ccnc(Nc3cccc(Cl)c3)n2)ccn1 = 100
COc1cc(C(=O)NC2CCN(C)CC2)ccc1Nc1ncc2c(n1)N(C1CCCC1)C(C)CC(=O)N2C (stereo unspecified) = 100
COc1cc(C(=O)NC2CCN(C)CC2)ccc1Nc1ncc2c(n1)N(C1CCCC1)CCC(=O)N2C(C)C = 100

INPUT: Please tell me: kinase still bound, per cent of control of O=C(NC1CC1)c1cccc(-c2ccc3c(NC(=O)C4CC4)n[nH]c3c2)c1 , system WEE1 (human)?
OUTPUT: 84

INPUT: Can you check C=CC(=O)Nc1cc(NC(=O)c2ccc(C)c(NC(=O)c3ccno3)c2)cc(C(F)(F)F)c1 next?
OUTPUT: 100

INPUT: Please answer likewise for Cc1ccc(C(=O)Nc2cccc(C(F)(F)F)c2)cc1Nc1cncc(C(N)=O)c1
OUTPUT: 100
